tested_system: ALPK1 (Homo sapiens (Human), UniProt Q96QP1)
Sequence (Q96QP1 whole entry): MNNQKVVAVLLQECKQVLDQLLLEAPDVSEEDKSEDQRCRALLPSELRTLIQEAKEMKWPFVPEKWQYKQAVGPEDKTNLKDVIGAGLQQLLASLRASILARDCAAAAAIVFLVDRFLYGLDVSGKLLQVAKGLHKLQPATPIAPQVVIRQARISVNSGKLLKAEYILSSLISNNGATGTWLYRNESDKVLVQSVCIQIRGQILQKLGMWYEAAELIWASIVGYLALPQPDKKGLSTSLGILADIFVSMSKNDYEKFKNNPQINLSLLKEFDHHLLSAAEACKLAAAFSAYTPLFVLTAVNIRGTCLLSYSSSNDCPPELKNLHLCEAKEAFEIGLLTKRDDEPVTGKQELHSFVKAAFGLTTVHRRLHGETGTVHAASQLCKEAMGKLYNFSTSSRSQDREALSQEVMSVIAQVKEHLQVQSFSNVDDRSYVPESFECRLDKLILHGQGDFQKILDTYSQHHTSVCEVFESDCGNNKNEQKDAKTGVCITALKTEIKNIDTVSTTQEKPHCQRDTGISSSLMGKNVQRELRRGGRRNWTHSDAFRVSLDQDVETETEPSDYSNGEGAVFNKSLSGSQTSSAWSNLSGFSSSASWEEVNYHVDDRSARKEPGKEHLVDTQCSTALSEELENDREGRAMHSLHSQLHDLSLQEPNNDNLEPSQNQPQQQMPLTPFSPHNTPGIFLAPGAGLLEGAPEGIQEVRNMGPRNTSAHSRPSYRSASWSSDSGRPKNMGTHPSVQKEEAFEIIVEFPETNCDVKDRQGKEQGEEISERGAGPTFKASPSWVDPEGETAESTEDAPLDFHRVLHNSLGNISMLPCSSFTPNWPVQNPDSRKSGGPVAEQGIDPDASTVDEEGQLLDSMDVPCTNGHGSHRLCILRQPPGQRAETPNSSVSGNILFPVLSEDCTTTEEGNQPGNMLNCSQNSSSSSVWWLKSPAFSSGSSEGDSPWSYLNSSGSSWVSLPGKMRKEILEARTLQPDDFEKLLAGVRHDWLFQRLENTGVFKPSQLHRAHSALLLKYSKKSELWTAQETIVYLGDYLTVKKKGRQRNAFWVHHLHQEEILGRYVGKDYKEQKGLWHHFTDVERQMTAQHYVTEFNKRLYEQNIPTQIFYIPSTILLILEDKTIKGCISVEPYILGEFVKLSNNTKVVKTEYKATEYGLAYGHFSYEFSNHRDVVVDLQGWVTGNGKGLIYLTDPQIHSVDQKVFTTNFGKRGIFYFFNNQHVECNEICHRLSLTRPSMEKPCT
protocol_summary: ALPK1 in vitro kinase assay (HTRF of TIFA phosphorylation)
Assay type: biochemical
outcome_measure: log10(IC50) (log10 of the value in nM)
Base-10 log of IC50, unit nM.

COc1ccc(C(C)(CO)c2csc(NC(=O)NC(C)c3ccc(N4CCNCC4)cc3)n2)cc1 (stereo not drawn)    1.79
C#C[C@@](C)(c1ccc(OC)cc1)c1csc(NC(=O)N2CC(CO)C2)n1    1.63
C#C[C@](C)(c1ccc(Cl)cc1)c1csc(NC(=O)N2CC(CO)C2)n1    2.39
COc1ccc(C(C)(C)c2csc(NC(=O)NCc3cnccn3)n2)cc1    1.96
C#CC(C)(c1ccc(Br)cc1)c1csc(NC(=O)NCCN2CCNCC2)n1 (stereo not drawn)    1.30
CC(C)(c1ccc(Br)cc1)c1csc(NC(=O)NCc2cccc(N3CCNCC3)c2)n1    1.99
C#CC(C)(c1ccc(OC)cc1)c1csc(NC(=O)NC(C)c2ccc(N3CCNCC3)cc2)n1 (stereo not drawn)    1.56
C#C[C@@](C)(c1ccc(Cl)cc1)c1csc(NC(=O)N2CC(CO)C2)n1    1.76

Now turn to the next molecule.
Reported log10(IC50) for `COc1ccc(C(C)(C)c2csc(NC(=O)NCCCCNc3ccccc3)n2)cc1` was 2.37

Reference source: patent US20240226094A1
